# Test system: CAKI-1 renal
# test.name: NCI tumour cell line growth inhibition, 48 h
parameter.measured: GI50

Worked examples, 5 compounds total:
O=S(=O)(Nc1cc(Sc2cccc3cccnc23)c(O)c2ccccc12)c1ccccc1 = 1970 nM
CCCCCCCCCCCCCCCCCCOc1ccccc1CC(=O)OCC[N+]1(C)CCCC1 = 1600 nM
COc1ccc(CCN2COc3c([C@@H](C)CCC=C(C)C)ccc(C)c3C2)cc1OC = 2730 nM
O=c1cc(NC2CCN(CCCc3ccccc3)CC2)c2cc(Cl)ccc2o1 = 12400 nM
COc1cccc2c(=O)c3c(sc12)c(N1CCNCC1)nc1ccccc13 = 1640 nM

Turning now to a further compound:
**Q:** Can you look up GI50 on CAKI-1 renal for C1C[OH+]CC[OH+]CC[OH+]CC[OH+]CC[OH+]1.[Cl-].[V] ?
**A:** 82200 nM
